// IC50 collected for Histone deacetylase 1 (Homo sapiens, UniProt Q13547)
attribute.measured: IC50

>>> result("Cc1cccc(CCNC(=O)CCCCCCS)c1")
"3210 nM"
>>> result("CN1C(=O)CCC[C@H]1C(=O)N[C@@H](CCCCCS)C(=O)Nc1ccccc1")
"11 nM"
>>> result("Cc1ccc(NC(=O)[C@H](CCCCCS)NC(=O)[C@@H]2CCCC(=O)N2)cc1")
"8 nM"
>>> result("O=C1CC[C@H](C(=O)N[C@@H](CCCCCS)C(=O)Nc2cccc(C(F)(F)F)c2)N1")
"5 nM"
>>> result("Cc1cccc(NC(=O)[C@H](CCCCCS)NC(=O)[C@@H]2CCC(=O)N2)c1")
"5 nM"
>>> result("CN1C(=O)CC[C@@H]1C(=O)N[C@@H](CCCCCS)C(=O)Nc1ccccc1")
"58 nM"
>>> result("Cc1cccc(NC(=O)[C@H](CCCCCS)NC(=O)[C@H]2CCC(=O)N2C)c1")
"3 nM"
>>> result("O=C(CCCCCCS)NC1CCCC1")
"865 nM"
>>> result("O=C1CC[C@@H](C(=O)N[C@@H](CCCCCS)C(=O)Nc2ccccc2)N1")
"24 nM"
>>> result("O=C1CCC[C@@H](C(=O)N[C@@H](CCCCCS)C(=O)NCc2ccc(C(F)(F)F)cc2)N1")
"386 nM"
